molecular target: thrombin (Homo sapiens, UniProt P00734); construct: consists of two polypeptide chains of 36 (light chain) and 259 amino acid; assay: Thrombin inhibition screen of crude macrocycle reactions (residual thrombin activity, fluorogenic substrate Z-Gly-Gly-Arg-AMC); assay type: biochemical; conditions: 10 µM macrocycle concentration; crude reactions, Library 1a-l; scaffold AA1-AA2-AA3 combined with 1-16 or '-'
Numbered stars: 1 amine (or outer) side, 2 acyl side, 3 side chain; on linkers, the order of the positions; unused ones are H or OH. Bridge positions count the residues as written; N and C are the ends. Square brackets hold non-standard residues; d marks the D form. Peptide text beside a SMILES is read from it. * marks the point of attachment. 1,2,3Thiadiazole5CO(4-Me) = Cc1nnsc1C(=O)*; Phenoxyacetyl = O=C(COc1ccccc1)*; Cysteamide = C(CS[*:3])N[*:1]; X3 = O=C(Cc1c[nH]c2ccccc12)*; 4Amb = NCc1ccc(C(=O)O)cc1; Bz = O=C(c1ccccc1)*; Mpa = O=C(O)CCS
reportedEndpoint: percent residual thrombin activity
Put down the number, then write its unit next to it.

query: Request the reported percent residual thrombin activity associated with O=C(COc1ccccc1)NCCCC[C@@H]1NC(=O)C2(CC2)CNC(=O)[C@H](Cc2c[nH]c3ccccc23)NC(=O)CCSSCCNC1=O [W-B6-D1/13]
result: 88.7647%

query: GET /values?readout=percent residual thrombin activity&item= NCCCC[C@@H]1NC(=O)CCSSCCNC(=O)[C@H]2CCCN(C2)C(=O)[C@H](Cc2ccccc2)NC1=O [D1-F-B4/-]
result: 110.104%

query: Find the recorded percent residual thrombin activity belonging to Cc1nnsc1C(=O)NCCCC[C@@H]1NC(=O)[C@H](CC(C)C)NC(=O)CCSSCCNC(=O)[C@@H]2CCCN2C1=O [L-D1-B1/15] ([Mpa]LK(1,2,3Thiadiazole5CO(4-Me))P-Cysteamide; disulfide 1-C) and report it.
result: 110.815%

query: Item CC(C)[C@@H]1NC(=O)CCSSCCNC(=O)[C@@H]2CCCN2C(=O)[C@H](CCCCNC(=O)COc2ccccc2)NC1=O [V-D1-B1/13] ([Mpa]VK(Phenoxyacetyl)P-Cysteamide; disulfide 1-C) has what recorded percent residual thrombin activity?
result: 111.167%

query: Consider the compound C[C@H]1NC(=O)CCSSCCNC(=O)[C@H]2CCCN(C2)C(=O)[C@H](CCCCNC(=O)c2c[nH]c(=O)cn2)NC1=O [a-D1-B4/9] and give its measured percent residual thrombin activity.
result: 108.338%

Continuing:
query: Query (compound): CC(C)CC(=O)NCCC[C@@H]1NC(=O)[C@H]2CCCN(C2)C(=O)[C@H](CC(C)C)NC(=O)CCSSCCNC1=O [L-B4-D2/8] ; field requested: percent residual thrombin activity
result: 106.945%

query: Please report the recorded percent residual thrombin activity for O=C(NCCCC[C@@H]1NC(=O)[C@@H](Cc2c[nH]c3ccccc23)NC(=O)[C@H]2CCCN(C2)C(=O)CCSSCCNC1=O)c1ccc(Cl)s1 [B4-W-D1/14] .
result: 84.8525%

query: Which measured percent residual thrombin activity value corresponds to CC(C)[C@@H]1NC(=O)CCSSCCNC(=O)[C@@H]2CCCN2C(=O)[C@H](CCCCNC(=O)Cc2c[nH]c3ccccc23)NC1=O [v-D1-B1/12] ([Mpa]VK(X3)P-Cysteamide; disulfide 1-C) ?
result: 99.643%

query: Endpoint output: percent residual thrombin activity of O=C1CCSSCCNC(=O)[C@H](CCCCNC(=O)Cc2c[nH]c3ccccc23)NC(=O)[C@H](Cc2ccc(O)cc2)NC(=O)C2(CC2)CN1 [B6-Y-D1/12] . Value?
result: 101.278%

query: // returns reported percent residual thrombin activity for input CC(C)[C@@H]1NC(=O)[C@H](CCCNC(=O)c2ccccc2)NC(=O)C2(CC2)CNC(=O)CCSSCCNC1=O [B6-D2-V/1]
result: 108.209%

query: Name the recorded percent residual thrombin activity for NCCCC[C@@H]1NC(=O)[C@H](Cc2ccc(O)cc2)NC(=O)C2(CC2)CNC(=O)CCSSCCNC1=O [B6-Y-D1/-] .
result: 104.679%

query: For the compound O=C1CCSSCCNC(=O)[C@H](CO)NC(=O)c2ccc(cc2)CNC(=O)[C@H](CCCCNC(=O)c2c[nH]c(=O)[nH]c2=O)N1 [D1-B3-S/11] , what percent residual thrombin activity is on record?
result: 105.178%

query: Query (compound): O=C1CCSSCCNC(=O)[C@H](CCCCNC(=O)c2ccccc2)NC(=O)[C@@H](Cc2ccc(O)cc2)NC(=O)c2ccc(cc2)CN1 [B3-y-D1/1] ([Mpa][4Amb][dY]K(Bz)-Cysteamide; disulfide 1-C) ; field requested: percent residual thrombin activity
result: 107.146%

Reference for the values: paper PMC9250534
